# TEST_DETAILS: Pharmacokinetic study, plasma
# Format: in vivo
# CONDITION_CONTEXT: male, C57BL/6, mouse, plasma, po, 20 mg/kg, male C57BL/6 mice, 4 hr, read-out: plasma Concentration, Individuals
ENDPOINT_NAME: concentration at 4 hr (ng/mL)
Report only the number, with the unit ng/mL understood.

Exercise: Form field: reported concentration at 4 hr of `NC(=O)c1ncn2c(=O)n(CCF)nnc12`
Solution: 1060

---

# TEST_DETAILS: Pharmacokinetic study, plasma
# Assay type: in vivo
# CONDITION_CONTEXT: male, C57BL/6, mouse, plasma, po, 20 mg/kg, male C57BL/6 mice, 1 hr, N=3, read-out: plasma Concentration, Mean
ENDPOINT_NAME: concentration at 1 hr
Answer with the figure and its unit, nothing else.

>>> print(df.to_string())
                               compound  recorded_measurement
0  NC(=O)c1ncn2c(=O)n(CCF)nnc12 [KL-50]           10000 ng/mL

Could you now look at the following compound, please?
Exercise: Form field: reported concentration at 1 hr of CNC(=O)c1ncn2c(=O)n(CCF)nnc12 [Compound I-1]
Solution: 2040 ng/mL

---

# TEST_DETAILS: Pharmacokinetic study, plasma
# Type: in vivo
# CONDITION_CONTEXT: male, C57BL/6, mouse, plasma, po, 20 mg/kg, male C57BL/6 mice, 0.333 hr, N=3, read-out: plasma Concentration, Mean
# Description: Compound KL50 dosing solution: 3.39% DMSO+96.61% (10% HP-β-CD in saline) at 2 mg/mL; • 1) Weigh 17.39 mg of compound KL50 into a clean tube. • 2) Add 0.295 mL DMSO into the tube containing the compound. • 3) Vortex the tube for 3 min and sonicate it for 4 min. • 4) Add 8.400 mL 10% HP-β-CD in saline into the tube and vortex the tube for 3 min. […]
ENDPOINT_NAME: concentration at 0.333 hr

Exercise: Form field: reported concentration at 0.333 hr of NC(=O)c1ncn2c(=O)n(CCF)nnc12 [KL-50]
Solution: 18100 ng/mL

Exercise: Form field: reported concentration at 0.333 hr of CNC(=O)c1ncn2c(=O)n(CCF)nnc12 [Compound I-1]
Solution: 11200 ng/mL

---

A collection of compounds and their measured concentration at 8 hr
# TEST_DETAILS: Pharmacokinetic study, plasma
# Assay type: in vivo
# CONDITION_CONTEXT: male, C57BL/6, mouse, plasma, po, 20 mg/kg, male C57BL/6 mice, 8 hr, N=3
Report only the number, with the unit ng/mL understood.

In [3]: df
Out[3]:
                       molecule  unit_of_measurement  recorded_measurement
0  NC(=O)c1ncn2c(=O)n(CCF)nnc12                ng/mL                   198

Could you now look at the following compound, please?
Exercise: Form field: reported concentration at 8 hr of `CNC(=O)c1ncn2c(=O)n(CCF)nnc12`
Solution: 5.2

---

# TEST_DETAILS: Brain distribution study
# Assay type: in vivo, male C57BL/6 mice
# CONDITION_CONTEXT: male, C57BL/6, mouse, brain, po, 20 mg/kg, PO 20 mg/kg, male C57BL/6 mice, 0.333 hr, N=3; read-out: brain Concentration, Mean
ENDPOINT_NAME: concentration at 0.333 hr
Answer with the figure and its unit, nothing else.

                        molecule  recorded_measurement
0  CNC(=O)c1ncn2c(=O)n(CCF)nnc12             6840 ng/g

Could you now look at the following molecule, please?
Exercise: Form field: reported concentration at 0.333 hr of `NC(=O)c1ncn2c(=O)n(CCF)nnc12`
Solution: 3690 ng/g
